Origin of the recorded values: the supplement of paper PMC8882468

Exercise: state measured CTG-3D luminescence at 96 h for each of the compounds provided.
- System: HCI-012 (organoid from a breast cancer xenograft)
- ASSAY COMMENT: CTG-3D luminescence at 96 h relative to day-0 seeding control (ratio to day 0); higher = more growth / less cytotoxicity; PDxO 3D drug screen, 96 h, CTG-3D normalised to day-0 seeding control.
- CONDITION DETAILS: 625 fM; days in culture: 143
Give the figure only, with no unit attached.

Task: Fill in the recorded CTG-3D luminescence at 96 h for this compound, with HCI-012 as test system: O=C(/C=C/c1cccnc1)NCCCCC1CCN(C(=O)c2ccccc2)CC1 [FK866]
Output: 1.84

Task: Please give the result for CCc1c2c(nc3ccc(O)cc13)-c1cc3c(c(=O)n1C2)COC(=O)[C@]3(O)CC [SN-38] too.
Output: 1.9

Task: Please give the result for CN(Cc1cnc2nc(N)nc(N)c2n1)c1ccc(C(=O)N[C@@H](CCC(=O)O)C(=O)O)cc1 [methotrexate] too.
Output: 2.07

Task: Please give the result for CNC(=O)c1cccc(-c2ccc3c(N4CCOC[C@@H]4C)nc(N4CCOC[C@@H]4C)nc3n2)c1 [vistusertib] too.
Output: 1.87

Task: Please give the result for C[C@@H]1COCCN1c1cc(C2([S@](C)(=N)=O)CC2)nc(-c2cc[nH]c3nccc2-3)n1 [ceralasertib] too.
Output: 2.02

Task: Please give the result for Cc1cc(Nc2ncc(Cl)c(Nc3ccccc3S(=O)(=O)C(C)C)n2)c(OC(C)C)cc1C1CCNCC1 [ceritinib] too.
Output: 2.32

Task: Please give the result for C=CCn1c(=O)c2cnc(Nc3ccc(N4CCN(C)CC4)cc3)nc2n1-c1cccc(C(C)(C)O)n1 [adavosertib] too.
Output: 2.06

Task: Please give the result for CC(C)(C(=O)NCC(F)(F)C(F)(F)F)C(=O)N[C@@H]1C(=O)Nc2ccccc2-c2ccccc21 too.
Output: 1.72

Task: Please give the result for NC1(C(=O)N[C@@H](CCO)c2ccc(Cl)cc2)CCN(c2nc[nH]c3nccc2-3)CC1 [capivasertib] too.
Output: 1.91

----------
Exercise: state measured CTG-3D luminescence at 96 h for each of the molecules provided.
- Test system: HCI-002 (organoid from a triple-negative breast cancer xenograft)
- ASSAY COMMENT: CTG-3D luminescence at 96 h relative to day-0 seeding control (ratio to day 0); higher = more growth / less cytotoxicity; PDxO 3D drug screen, 96 h, CTG-3D normalised to day-0 seeding control.
- CONDITION DETAILS: 625 fM; days in culture: 227
Give the figure only, with no unit attached.

Task: I am curious: what CTG-3D luminescence at 96 h value has been reported for C=CC(=O)N1CCC[C@@H](n2nc(-c3ccc(Oc4ccccc4)cc3)c3c(N)ncnc32)C1 ?
Output: 5.19

Task: Please give the result for C[C@]12CC[C@@H]3c4ccc(O)cc4C[C@@H](CCCCCCCCC[S+]([O-])CCCC(F)(F)C(F)(F)F)[C@H]3[C@@H]1CC[C@@H]2O (stereo partly drawn) too.
Output: 5.27

Task: Please give the result for CCN(c1cc(C#CCN2CCOCC2)cc(C(=O)NCc2c(C)cc(C)[nH]c2=O)c1C)[C@H]1CC[C@H](N(C)CCOC)CC1 too.
Output: 5.52

Task: Please give the result for C/C=C1\NC(=O)[C@H]2CSSCC/C=C/[C@H](CC(=O)N[C@H](C(C)C)C(=O)N2)OC(=O)[C@H](C(C)C)NC1=O too.
Output: 5.69

Task: Please give the result for O=C(O)C1(C(=O)O)CCC1.[NH2-].[NH2-].[Pt+2] too.
Output: 6.2

Task: Please give the result for CS(=O)(=O)c1ccc(C(=O)Nc2ccc(Cl)c(-c3ccccn3)c2)c(Cl)c1 too.
Output: 5.19

Task: Please give the result for CC(=O)O[C@H]1C(=O)[C@@]2(C)[C@H]([C@H](OC(=O)c3ccccc3)[C@]3(O)C[C@H](OC(=O)[C@H](O)[C@@H](NC(=O)c4ccccc4)c4ccccc4)C(C)=C1C3(C)C)[C@]1(OC(C)=O)CO[C@@H]1C[C@@H]2O too.
Output: 5

Task: Please give the result for C[C@H](NC(=O)CCC(F)(F)F)C(=O)N[C@@H]1C(=O)N(CCO)c2ncccc2-c2ccccc21 too.
Output: 4.95

----------
- Test system: HCI-025 (organoid from a breast cancer xenograft)
- ASSAY COMMENT: CTG-3D luminescence at 96 h relative to day-0 seeding control (ratio to day 0); higher = more growth / less cytotoxicity; PDxO 3D drug screen (set 2), 96 h, CTG-3D normalised to day-0 seeding control.
- CONDITION DETAILS: 10 µM; days in culture: 189
Exercise: state measured CTG-3D luminescence at 96 h for each of the molecules provided.
Give the figure only, with no unit attached.

Task: I am curious: what CTG-3D luminescence at 96 h value has been reported for COc1cccc2c1C(=O)c1c(O)c3c(c(O)c1C2=O)C[C@@](O)(C(=O)CO)C[C@@H]3O[C@H]1C[C@H](N)[C@@H](O)[C@H](C)O1 [epirubicin] ?
Output: 0.00904

Task: Please give the result for C[C@@H](Nc1cc(F)cc(F)c1)c1cc(C(=O)N(C)C)cc2c(=O)cc(N3CCOCC3)oc12 [AZD-8186] too.
Output: 1.88

Task: Please give the result for CS(=O)(=O)CCNCc1ccc(-c2ccc3ncnc(Nc4ccc(OCc5cccc(F)c5)c(Cl)c4)c3c2)o1 [lapatinib] too.
Output: 0.872

Task: Please give the result for CO[C@H]1C[C@@H]2CC[C@@H](C)[C@@](O)(O2)C(=O)C(=O)N2CCCC[C@H]2C(=O)O[C@H]([C@H](C)C[C@@H]2CC[C@@H](O)[C@H](OC)C2)CC(=O)[C@H](C)/C=C(\C)[C@@H](O)[C@@H](OC)C(=O)[C@H](C)C[C@H](C)/C=C/C=C/C=C/1C [rapamycin] too.
Output: 0.979

Task: Please give the result for Cc1c(CN2CCN(C(=O)[C@H](C)O)CC2)sc2c(N3CCOCC3)nc(-c3cnc(N)nc3)nc12 [apitolisib] too.
Output: 0.179

Task: Please give the result for CC(=O)O[C@@]12CO[C@@H]1C[C@H](O)[C@@]1(C)C(=O)[C@H](O)C3=C(C)[C@@H](OC(=O)[C@H](O)[C@@H](NC(=O)OC(C)(C)C)c4ccccc4)C[C@@](O)([C@@H](OC(=O)c4ccccc4)[C@H]21)C3(C)C [docetaxel] too.
Output: 0.759

----------
- System: HCI-012
- ASSAY COMMENT: CTG-3D luminescence at 96 h relative to day-0 seeding control (ratio to day 0); higher = more growth / less cytotoxicity; PDxO 3D drug screen (set 2), 96 h, CTG-3D normalised to day-0 seeding control.
- CONDITION DETAILS: 625 fM; days in culture: 214
Exercise: state measured CTG-3D luminescence at 96 h for each of the compounds provided.
Give the figure only, with no unit attached.

Task: Fill in the recorded CTG-3D luminescence at 96 h for this compound, with HCI-012 as test system: CCOc1ccn(-c2ccc(F)cc2)c(=O)c1C(=O)Nc1ccc(Oc2ccnc(N)c2Cl)c(F)c1
Output: 2.47

Task: Please give the result for O=C(c1cc(Cc2n[nH]c(=O)c3ccccc23)ccc1F)N1CCN(C(=O)C2CC2)CC1 too.
Output: 2.64

Task: Please give the result for CC(C)n1nc(-c2ccc3oc(N)nc3c2)c2c(N)ncnc21 too.
Output: 2.11

Task: Please give the result for CO[C@H]1C[C@@H]2CC[C@@H](C)[C@@](O)(O2)C(=O)C(=O)N2CCCC[C@H]2C(=O)O[C@H]([C@H](C)C[C@@H]2CC[C@@H](OCCO)[C@H](OC)C2)CC(=O)[C@H](C)/C=C(\C)[C@@H](O)[C@@H](OC)C(=O)[C@H](C)C[C@H](C)/C=C/C=C/C=C/1C too.
Output: 2.25

----------
Exercise: state measured CTG-3D luminescence at 96 h for each of the molecules provided.
- Test system: HCI-008 (organoid from a HER2-enriched breast cancer xenograft)
- ASSAY COMMENT: CTG-3D luminescence at 96 h relative to day-0 seeding control (ratio to day 0); higher = more growth / less cytotoxicity; PDxO 3D drug screen, 96 h, CTG-3D normalised to day-0 seeding control.
- CONDITION DETAILS: 0.005 µM; days in culture: 228
Give the figure only, with no unit attached.

Task: I am curious: what CTG-3D luminescence at 96 h value has been reported for COc1cc2c(Oc3ccc4[nH]c(C)cc4c3F)ncnc2cc1OCCCN1CCCC1 ?
Output: 1.53

Task: Please give the result for CCN(c1cc(C#CCN2CCOCC2)cc(C(=O)NCc2c(C)cc(C)[nH]c2=O)c1C)[C@H]1CC[C@H](N(C)CCOC)CC1 too.
Output: 1.28

Task: Please give the result for C[C@@H]1COCCN1c1cc(C2([S@](C)(=N)=O)CC2)nc(-c2cc[nH]c3nccc2-3)n1 too.
Output: 1.41

Task: Please give the result for C[C@H](NC(=O)CCC(F)(F)F)C(=O)N[C@@H]1C(=O)N(CCO)c2ncccc2-c2ccccc21 too.
Output: 1.56

Task: Please give the result for Cc1cc(Nc2ncc(Cl)c(Nc3ccccc3S(=O)(=O)C(C)C)n2)c(OC(C)C)cc1C1CCNCC1 too.
Output: 1.55
